Value source: patent US8138189B2

Target: full length human recombinant glucocorticoid receptor (Homo sapiens, UniProt P04150)
Construct: partially purified full length human recombinant glucocorticoid receptor; purchased Panvera/Invitrogen PV4302
Sequence (P04150 whole entry): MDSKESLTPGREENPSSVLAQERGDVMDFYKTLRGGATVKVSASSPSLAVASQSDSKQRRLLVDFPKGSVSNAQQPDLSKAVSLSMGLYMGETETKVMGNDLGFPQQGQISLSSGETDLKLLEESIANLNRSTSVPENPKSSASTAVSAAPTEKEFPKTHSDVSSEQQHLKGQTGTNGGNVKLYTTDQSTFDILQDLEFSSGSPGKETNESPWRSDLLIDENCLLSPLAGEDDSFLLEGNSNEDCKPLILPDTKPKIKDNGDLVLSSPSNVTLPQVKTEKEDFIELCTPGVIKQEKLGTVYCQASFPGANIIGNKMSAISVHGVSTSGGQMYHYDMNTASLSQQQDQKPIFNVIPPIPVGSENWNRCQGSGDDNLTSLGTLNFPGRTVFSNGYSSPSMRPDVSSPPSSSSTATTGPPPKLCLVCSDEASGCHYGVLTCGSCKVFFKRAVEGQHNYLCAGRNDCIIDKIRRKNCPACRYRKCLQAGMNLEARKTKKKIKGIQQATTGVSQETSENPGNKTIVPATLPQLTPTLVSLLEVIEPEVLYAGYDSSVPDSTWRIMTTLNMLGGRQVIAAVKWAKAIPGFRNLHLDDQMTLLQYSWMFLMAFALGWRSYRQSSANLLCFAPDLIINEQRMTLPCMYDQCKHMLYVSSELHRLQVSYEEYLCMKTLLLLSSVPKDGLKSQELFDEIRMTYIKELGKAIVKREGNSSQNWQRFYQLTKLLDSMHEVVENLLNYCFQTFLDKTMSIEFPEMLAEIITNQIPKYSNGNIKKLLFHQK
Test: Glucocorticoid Receptor Binding Assay (fluorescence polarization competitor assay, Fluormone GS Far Red tracer)
Method: Glucocorticoid Receptor Binding Assay The ability of the substances to bind to the glucocorticoid receptor was determined with the help of a commercial Glucocorticoid Receptor Competitor Assay far red kit provided by Panvera/Invitrogen (PV4302). This kit is used as provided by the supplier. […]
# pKi listing for each entry below
Recall that pKi is obtained by taking minus log10 of the concentration measured in molar.

Below, 2 compounds whose answers are already recorded.
> print(dat)
                                   compound  value.reported
1  COc1cc(-c2ccc([C@H](C)[C@](O)(c3ccc(=O)n(C)c3)C(F)(F)F)c(Cl)c2)ccc1C(=O)O (stereo in doubt)            7.01
2  COC(=O)Cc1ccc(NC(=O)c2ccc([C@@H](C)[C@@](O)(c3ccnc(Cl)c3)C(F)(F)F)c(Cl)c2)cc1 (relative stereo)            6.81

Query string: So what pKi did C[C@H](c1ccc(C(=O)NCc2ccc(C(=O)O)cc2)cc1Cl)[C@@](O)(c1ccnc(Cl)c1)C(F)(F)F (stereo in doubt) get with full length human recombinant glucocorticoid receptor (Homo sapiens, UniProt P04150)?
Result string: 6.85
